Test: self-splicing fitness, log relative to wild type (ln ratio); higher = more splicing; Tetrahymena group I intron in knt gene, E. coli kanamycin selection, DiMSum; sequences stand for … in CUCUCU…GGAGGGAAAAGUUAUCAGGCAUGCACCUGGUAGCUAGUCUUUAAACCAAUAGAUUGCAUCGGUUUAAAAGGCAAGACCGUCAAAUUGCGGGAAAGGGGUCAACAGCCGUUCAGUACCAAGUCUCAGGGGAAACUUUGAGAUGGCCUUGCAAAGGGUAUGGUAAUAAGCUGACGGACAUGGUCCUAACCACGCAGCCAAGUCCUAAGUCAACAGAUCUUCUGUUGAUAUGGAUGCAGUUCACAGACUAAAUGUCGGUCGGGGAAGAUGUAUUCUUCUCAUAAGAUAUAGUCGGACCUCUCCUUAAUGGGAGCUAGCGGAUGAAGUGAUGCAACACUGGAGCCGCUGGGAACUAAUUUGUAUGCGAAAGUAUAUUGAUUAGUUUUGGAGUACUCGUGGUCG;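 further: selection with 25 µg/mL kanamycin versus none on LB agar overnight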
Settings: 37 °C
Recorded self-splicing fitness (ln) determines the group label, using lo (below -2), med (-2 to below -1), hi (-1 or more)

Solved cases below.
CCCUAGCAAUAUUACGGCGG: lo
GUUAAGCAAUAUUACGCUAU: hi
UAGAAGCAAUAUUACGGUUU: lo
UCUCAGCAAUAUUACGUGUU: lo
AUACAGCAAUAUUACGGUCA: hi

Please examine the following record next.
q: Class (by measured self-splicing fitness (ln)) for "CGAGAGCAAUAUUACGGGCG"
a: med
